All values here come from patent US9029404B2.

- Target Entity: GST-Bcl-2 (Homo sapiens)
Documented Ki across a set of molecules

Molecule	Target Entity	Ki
CC1(C)CCC(CN2CCN(c3ccc(C(=O)NS(=O)(=O)c4ccc(NCC5CN(C6COC6)CCO5)c([N+](=O)[O-])c4)c(Oc4cc5cc[nH]c5cc4F)c3)CC2)=C(c2ccc(Cl)cc2)C1 (stereo not drawn) [Example 422]	GST-Bcl-2 (Homo sapiens)	< 0.01 nM
CC1(C)CCC(CN2CCN(c3ccc(C(=O)NS(=O)(=O)c4ccc(OCC5(F)CCOCC5)c([N+](=O)[O-])c4)c(Oc4cc(F)cc5[nH]ncc45)c3)CC2)=C(c2ccc(Cl)cc2)C1 [Example 433]	GST-Bcl-2 (Homo sapiens)	< 0.01 nM
CO[C@H]1CC[C@H](CNc2ccc(S(=O)(=O)NC(=O)c3ccc(N4CCN(CC5=C(c6ccc(Cl)cc6)CC(C)(C)CC5)CC4)cc3Oc3cccc4[nH]c(=O)n(C)c34)cc2[N+](=O)[O-])CC1 [Example 427]	GST-Bcl-2 (Homo sapiens)	< 0.01 nM

* * *

Data export: pKi values recorded with GST-Bcl-2 (Homo sapiens, UniProt P10415).
Sequence (P10415 whole entry): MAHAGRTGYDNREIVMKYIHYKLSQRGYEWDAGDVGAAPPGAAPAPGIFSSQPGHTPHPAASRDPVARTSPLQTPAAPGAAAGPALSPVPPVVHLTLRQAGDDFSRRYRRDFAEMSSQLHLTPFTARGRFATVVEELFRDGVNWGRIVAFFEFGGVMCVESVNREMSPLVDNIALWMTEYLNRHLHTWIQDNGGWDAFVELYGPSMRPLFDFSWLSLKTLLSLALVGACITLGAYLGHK
pKi: −log10 of the molar value.

Compound	Value Modifier	pKi
CC1(C)CCC(CN2CCN(c3ccc(C(=O)NS(=O)(=O)c4ccc(OCC5(F)CCOCC5)c(Cl)c4)c(Oc4cc5cc[nH]c5cc4F)c3)CC2)=C(c2ccc(Cl)cc2)C1 [Example 412]	=	8.95
CC(C)(C)OC(=O)N1CCC(c2ccc(Cl)cc2)=C(CN2CCN(c3ccc(C(=O)NS(=O)(=O)c4cnc(OCC5(F)CCOCC5)c(Cl)c4)c(Oc4cc5cc[nH]c5cc4F)c3)CC2)C1 [Example 416]	=	8.13
CC1(C)CCC(CN2CCN(c3ccc(C(=O)NS(=O)(=O)c4ccc(NC[C@H]5CN(C6CC6)CCO5)c([N+](=O)[O-])c4)c(Oc4cnc(N)c(Cl)c4)c3)CC2)=C(c2ccc(Cl)cc2)C1 [Example 442]	>	11.00
Cn1c(=O)[nH]c2cccc(Oc3cc(N4CCN(CC5=C(c6ccc(Cl)cc6)CC(C)(C)CC5)CC4)ccc3C(=O)NS(=O)(=O)c3ccc(OCC4(F)CCOCC4)c([N+](=O)[O-])c3)c21 [Example 426]	>	11.00
CC1(C)CCC(CN2CCN(c3ccc(C(=O)NS(=O)(=O)c4cnc(OCC5CCC(C)(O)CC5)c(C#N)c4)c(Oc4cc(F)cc5[nH]ncc45)c3)CC2)=C(c2ccc(Cl)cc2)C1 (centres unmarked) [Example 453]	>	11.00
